# TGT: Neurogenic locus notch homolog protein 3 (Homo sapiens) (UniProt Q9UM47)
# Sequence (Q9UM47 whole entry, looked up): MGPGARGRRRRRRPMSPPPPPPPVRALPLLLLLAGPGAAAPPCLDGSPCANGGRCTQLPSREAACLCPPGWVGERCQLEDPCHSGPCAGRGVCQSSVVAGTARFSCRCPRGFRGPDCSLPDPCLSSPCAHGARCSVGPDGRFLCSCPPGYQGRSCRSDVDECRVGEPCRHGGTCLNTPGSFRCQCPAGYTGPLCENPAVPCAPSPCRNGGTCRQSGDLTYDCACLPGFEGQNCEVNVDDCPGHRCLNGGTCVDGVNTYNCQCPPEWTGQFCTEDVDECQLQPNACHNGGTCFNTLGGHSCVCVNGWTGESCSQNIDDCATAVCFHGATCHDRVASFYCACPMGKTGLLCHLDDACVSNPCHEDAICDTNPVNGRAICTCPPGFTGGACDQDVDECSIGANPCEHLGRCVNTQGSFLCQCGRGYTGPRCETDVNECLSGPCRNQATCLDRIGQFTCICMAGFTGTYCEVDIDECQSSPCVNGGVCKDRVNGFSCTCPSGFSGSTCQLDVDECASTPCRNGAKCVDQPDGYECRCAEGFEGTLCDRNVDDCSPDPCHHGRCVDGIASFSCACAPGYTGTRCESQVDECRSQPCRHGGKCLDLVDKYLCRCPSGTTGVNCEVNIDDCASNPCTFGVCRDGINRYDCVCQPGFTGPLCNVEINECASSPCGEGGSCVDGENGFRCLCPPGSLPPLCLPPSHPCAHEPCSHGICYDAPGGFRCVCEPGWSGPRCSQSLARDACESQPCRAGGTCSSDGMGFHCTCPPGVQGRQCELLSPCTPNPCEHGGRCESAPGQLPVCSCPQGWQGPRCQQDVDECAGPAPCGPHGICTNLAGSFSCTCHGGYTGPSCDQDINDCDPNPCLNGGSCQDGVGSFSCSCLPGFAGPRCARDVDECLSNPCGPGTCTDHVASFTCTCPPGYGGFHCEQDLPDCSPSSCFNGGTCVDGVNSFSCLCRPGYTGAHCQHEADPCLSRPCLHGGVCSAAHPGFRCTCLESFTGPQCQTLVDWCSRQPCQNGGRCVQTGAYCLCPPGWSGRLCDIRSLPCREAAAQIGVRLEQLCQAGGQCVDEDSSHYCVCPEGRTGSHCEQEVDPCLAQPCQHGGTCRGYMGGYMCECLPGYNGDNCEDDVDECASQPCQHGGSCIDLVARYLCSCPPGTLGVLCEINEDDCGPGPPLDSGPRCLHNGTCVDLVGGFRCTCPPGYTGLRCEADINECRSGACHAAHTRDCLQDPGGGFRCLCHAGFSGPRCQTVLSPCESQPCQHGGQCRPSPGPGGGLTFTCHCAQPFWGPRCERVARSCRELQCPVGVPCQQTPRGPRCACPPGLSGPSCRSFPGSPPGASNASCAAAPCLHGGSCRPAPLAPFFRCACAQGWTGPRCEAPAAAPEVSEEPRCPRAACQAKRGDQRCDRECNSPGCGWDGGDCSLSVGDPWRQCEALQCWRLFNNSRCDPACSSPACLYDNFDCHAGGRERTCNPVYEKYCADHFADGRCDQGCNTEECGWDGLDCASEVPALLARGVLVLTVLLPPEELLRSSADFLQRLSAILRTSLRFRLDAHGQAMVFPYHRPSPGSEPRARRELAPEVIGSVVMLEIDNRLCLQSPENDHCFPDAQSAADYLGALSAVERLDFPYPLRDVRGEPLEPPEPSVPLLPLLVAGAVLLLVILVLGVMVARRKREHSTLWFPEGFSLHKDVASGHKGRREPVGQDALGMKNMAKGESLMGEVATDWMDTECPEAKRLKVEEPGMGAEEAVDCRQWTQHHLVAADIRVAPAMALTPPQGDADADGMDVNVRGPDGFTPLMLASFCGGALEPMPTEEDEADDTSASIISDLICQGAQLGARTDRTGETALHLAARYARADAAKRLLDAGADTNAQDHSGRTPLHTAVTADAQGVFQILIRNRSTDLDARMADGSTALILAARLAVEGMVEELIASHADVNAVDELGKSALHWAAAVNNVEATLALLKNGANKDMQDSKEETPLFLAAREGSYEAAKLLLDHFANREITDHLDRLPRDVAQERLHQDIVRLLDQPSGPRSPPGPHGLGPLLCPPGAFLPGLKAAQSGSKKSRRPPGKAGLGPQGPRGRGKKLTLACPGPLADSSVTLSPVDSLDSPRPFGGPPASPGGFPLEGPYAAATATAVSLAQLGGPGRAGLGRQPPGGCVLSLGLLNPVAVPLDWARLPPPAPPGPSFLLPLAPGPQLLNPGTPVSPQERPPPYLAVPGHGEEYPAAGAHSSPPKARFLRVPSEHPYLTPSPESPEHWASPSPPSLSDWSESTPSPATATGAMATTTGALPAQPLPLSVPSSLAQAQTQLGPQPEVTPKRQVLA
# ASSAY_NOTES: NOTCH3 binders on small-molecule microarray, primary screen, biochemical, 635/667 nm fluorescence (AID 1096)
# CONDITION: NOTCH3 binding, 635 nm fluorescence, higher = more signal
EXPERIMENTAL_READOUT: composite z-score
Numbers only.

COMPOUND_STRUCTURE_STRING: O=C1c2ccccc2[C@@]2(Cc3ccccc3N(CC(F)(F)F)C2=O)[C@H](c2ccc(CO)cc2)N1Cc1ccccc1Cl
EXPERIMENTAL_READOUT: composite z-score
OBSERVED_RESULT: -0.0169

Could you report composite z-score for every entry in the following list?
1. C=CCOC(=O)[C@H]1[C@@H]2C(=O)O[C@@H](c3ccccc3)[C@@H](c3ccccc3)N2[C@@H](c2ccc(OCCOC(=O)[C@H]3C[C@H]4C(=O)N5CCC[C@H]5C(=O)N4[C@H]3c3ccc(O)cc3)cc2)[C@]12C(=O)Nc1ccc(I)cc12
2. CN(C)C(=O)[C@@]1(Cc2ccccc2CN=[N+]=[N-])N=C(c2ccc(OCCCO)cc2)O[C@H]1c1ccccc1

1.05
0.301
